Measured pIC50 by item
Biological target: c-kit autophosphorylation (Phospho c-Kit Tyr721) in HMC 1.1 (exon 11/13) cells, V654A (Homo sapiens, UniProt P10721, V560G/V654A)
Construct: endogenous in cells
Sequence (P10721 26-976 V560G/V654A): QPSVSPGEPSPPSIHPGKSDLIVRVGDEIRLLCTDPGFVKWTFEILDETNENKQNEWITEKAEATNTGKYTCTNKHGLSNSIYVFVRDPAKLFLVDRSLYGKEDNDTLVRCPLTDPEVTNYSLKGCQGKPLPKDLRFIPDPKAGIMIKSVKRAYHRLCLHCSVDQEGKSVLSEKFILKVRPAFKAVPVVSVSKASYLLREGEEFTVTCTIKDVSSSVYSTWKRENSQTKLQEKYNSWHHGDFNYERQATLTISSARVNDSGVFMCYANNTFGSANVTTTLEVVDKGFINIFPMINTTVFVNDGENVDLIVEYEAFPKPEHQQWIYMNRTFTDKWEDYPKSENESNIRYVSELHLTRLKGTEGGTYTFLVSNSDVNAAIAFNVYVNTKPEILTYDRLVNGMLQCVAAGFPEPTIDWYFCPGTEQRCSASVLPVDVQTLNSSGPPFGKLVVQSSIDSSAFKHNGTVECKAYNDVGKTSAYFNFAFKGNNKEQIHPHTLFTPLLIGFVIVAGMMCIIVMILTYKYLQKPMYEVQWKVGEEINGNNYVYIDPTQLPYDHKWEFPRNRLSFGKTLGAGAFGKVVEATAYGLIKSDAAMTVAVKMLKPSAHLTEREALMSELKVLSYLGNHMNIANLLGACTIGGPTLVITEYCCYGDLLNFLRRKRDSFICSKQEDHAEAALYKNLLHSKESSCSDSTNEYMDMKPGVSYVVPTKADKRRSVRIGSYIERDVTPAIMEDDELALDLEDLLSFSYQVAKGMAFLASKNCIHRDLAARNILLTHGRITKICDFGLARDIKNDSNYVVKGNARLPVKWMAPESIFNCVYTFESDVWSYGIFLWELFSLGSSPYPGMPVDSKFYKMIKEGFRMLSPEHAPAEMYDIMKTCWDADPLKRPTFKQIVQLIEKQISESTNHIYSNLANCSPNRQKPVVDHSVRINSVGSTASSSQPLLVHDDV
Assay: pKIT Meso Scale Discovery (MSD) assay, inhibition of autophosphorylation of KIT, HMC1.1_V654A
Conditions: Table 1, cell line not named for Table 1, b1056 names pKIT HMC1.1_V654A, read-out: Code (IC50 for inhibition of autophosphorylation of KIT, pKIT MSD assay)
pIC50: −log10 of the molar value. Counter-ions that a name gives are not always drawn.

// known answers, use as guide
>>> endpoint_value("CCOc1cc(Nc2cc(N)nc(C(F)F)n2)ncc1-c1cnn(C)c1")
"> 8.00"
>>> endpoint_value("CCNc1cc(Nc2cc(N)nc(C(F)F)n2)ncc1C(=O)NC12CC(CO)(C1)C2")
"> 8.00"
>>> endpoint_value("CN1CC(n2cc(-c3cnc(Nc4cc(N)nc(C(F)F)n4)cc3OC[C@H]3CCCO3)cn2)C1")
"7.40 to 8.00"
>>> endpoint_value("C[C@@H](CF)Oc1cc(Nc2cc(N)nc(C(F)F)n2)ncc1-c1cnn(C)c1 (single isomer, unassigned)")
"> 8.00"
>>> endpoint_value("COc1cc(Nc2cc(N)nc(C(F)F)n2)ncc1-c1cnn(C2CNC2)c1 [Compound 76, formate]")
"< 7.40"
>>> endpoint_value("COc1cc(Nc2cc(N)nc(C(F)F)n2)ncc1-c1cnn(C2CCN(C)C2)c1 (stereo not shown)")
"> 8.00"

API: the following record is the query input.
Ask | // lookup pIC50 for COc1cc(Nc2cc(N)nc(C(F)F)n2)ncc1-c1cnn([C@@H]2CCNC2)c1 (single isomer, unassigned)
Reply | 7.40 to 8.00

---

Target: c-kit autophosphorylation (Phospho c-Kit Tyr721) in HMC 1.1 (exon 11/13) cells, V654A (Homo sapiens, UniProt P10721, V560G/V654A)
Construct: endogenous in cells
Test: pKIT Meso Scale Discovery (MSD) assay, inhibition of autophosphorylation of KIT, HMC1.1_V654A
Details: Table 1, cell line not named for Table 1, b1056 names pKIT HMC1.1_V654A, read-out: Code (IC50 for inhibition of autophosphorylation of KIT, pKIT MSD assay)
metric name: IC50

Examples with answers:
>>> endpoint_value("CNC(=O)c1cnc(Nc2cc(N)nc(CF)n2)cc1NC [Compound 1]")
"10 to 40 nM"
>>> endpoint_value("CCNc1cc(Nc2cc(N)nc(C(F)F)n2)ncc1C(=O)NC [Compound 12]")
"< 10 nM"
>>> endpoint_value("CN(C)CCn1cc(-c2cnc(Nc3cc(N)nc(C(F)F)n3)cc2OC(F)F)cn1 [Compound 179]")
"< 10 nM"
>>> endpoint_value("COc1cc(Nc2cc(N)nc(C(F)F)n2)ncc1-c1cnn(CCN(C)C)c1 [Compound 115]")
"10 to 40 nM"
>>> endpoint_value("Nc1cc(Nc2cc(OC(F)F)c(-c3cnn(C4CC4)c3)cn2)nc(C(F)F)n1 [Compound 127]")
"< 10 nM"
>>> endpoint_value("CCNc1cc(Nc2cc(N)nc(C(F)F)n2)ncc1C(=O)NCc1cocn1 [Compound 113]")
"< 10 nM"

Ask | # input molecule: CNC(=O)c1cnc(Nc2cc(N)nc(C(F)F)n2)cc1NCC1CCC1 [Compound 61] ; wanted: its IC50
Reply | 10 to 40 nM

Ask | Would you mind telling me what IC50 value was observed for Nc1cc(Nc2cc(OC3CC3)c(-c3cnn(C4COC4)c3)cn2)nc(C(F)F)n1 [Compound 133] ?
Reply | < 10 nM

Ask | Would you kindly share the measured IC50 for COc1cc(Nc2cc(N)nc(C(F)F)n2)ncc1-c1cnn(CCN2CCC2)c1 [Compound 137] ?
Reply | 10 to 40 nM
